I'd be grateful if you could share measured MIC for these entries.
# Tested on: Mycobacterium tuberculosis H37Rv
# experiment_notes: Microplate Alamar Blue assay (MABA) MIC, M. tuberculosis
# Format: cell-based
# condition_summary: read-out: MIC Mycobacterium tuberculosis H37Rv

Consider the reported MIC for these compounds:
compound | measurement
COc1ccc(F)cc1NC(=O)C(Cc1ccc(O)cc1)NC(=O)c1ccccc1C (stereo not shown) [IX-205] | 0.78 µg/mL
Cc1ccc(Cl)cc1NC(=O)C(Cc1ccc(O)cc1)NC(=O)c1ccccc1 (stereo not shown) [IX-51] | 3.12 µg/mL
O=C(NC(Cc1ccccc1)C(=O)Nc1cccc2c1OCO2)c1cccs1 (stereo not shown) [IX-98] | 6.25 µg/mL
O=C(NC(Cc1ccc(O)cc1)C(=O)Nc1cccc2cnccc12)c1ccccc1 (stereo not shown) [IX-19] | 6.25 µg/mL
O=C(NC(Cc1ccccc1)C(=O)Nc1cccc2cc[nH]c12)c1ccccc1 (stereo not shown) [II-28] | 12.5 µg/mL

Dear reader, for each entry below, please note its MIC.
1. Cc1ccc(Cl)cc1NC(=O)C(Cc1ccc(O)cc1)NC(=O)c1cccs1 (stereo not shown) [IX-94]
2. O=C(NC(Cc1ccccc1)C(=O)Nc1cccc2cc[nH]c12)c1ccccc1Cl (stereo not shown) [IX-95]
3. O=C(NC(Cc1ccccc1)C(=O)Nc1cccc2cnccc12)c1ccccc1F (stereo not shown) [IX-57]
4. O=C(NC(Cc1ccccc1)C(=O)Nc1ccccc1N1CCNCC1)c1ccccc1F (stereo not shown) [IX-211]
5. CNC(=O)N1CCN(c2ccccc2NC(=O)C(Cc2ccccc2)NC(=O)c2ccccc2)CC1 (stereo not shown) [IX-238]
6. O=C(NC(Cc1ccccc1)C(=O)Nc1cc(F)ccc1N1CCNCC1)c1cccc2[nH]ccc12 (stereo not shown) [IX-243]
7. O=C(NC(Cc1ccccc1)C(=O)Nc1ccccc1N1CCNCC1)c1ccccc1 (stereo not shown) [IX-150]

1. 3.12 µg/mL
2. 12.5 µg/mL
3. 6.25 µg/mL
4. 1.56 µg/mL
5. 1.56 µg/mL
6. 6.25 µg/mL
7. 6.25 µg/mL

Dear reader, for each entry below, please note its MIC.
1. Cc1ccccc1NC(=O)C(Cc1ccccc1)NC(=O)c1ccccc1Br (stereo not shown) [I-102]
2. Cc1ncccc1NC(=O)C(Cc1ccccc1)NC(=O)c1ccccc1 (stereo not shown) [II-5]
3. O=C(NC(Cc1ccccc1)C(=O)Nc1cccc2cnccc12)c1cccc2[nH]ccc12 (stereo not shown) [IX-44]
4. O=C(NC(Cc1ccccc1)C(=O)Nc1cc(F)ccc1N1CCN(CCO)CC1)c1cccs1 (stereo not shown) [IX-247]
5. COc1ccc(F)cc1NC(=O)C(Cc1ccccc1)NC(=O)c1cccc2[nH]ccc12 (stereo not shown) [IX-244]
6. O=C(NC(Cc1ccccc1)C(=O)Nc1cccc2[nH]nnc12)c1ccccc1 (stereo not shown) [IX-223]
7. CCCc1cccc(NC(=O)C(Cc2ccccc2)NC(=O)c2ccccc2)c1C (stereo not shown) [I-127]

> 50 µg/mL
50 µg/mL
1.56 µg/mL
1.56 µg/mL
6.25 µg/mL
25 µg/mL
> 50 µg/mL

====

I'd be grateful if you could share measured log10(MIC) for these entries.
# System: Mycobacterium tuberculosis H37Rv
# experiment_notes: Microplate Alamar Blue assay (MABA) MIC, M. tuberculosis
# Format: cell-based
# condition_summary: read-out: MIC Mycobacterium tuberculosis H37Rv
Plainly stated, the numbers are log10 of MIC given in µg/mL.

Dear reader, for each entry below, please note its log10(MIC).
1. COc1ccc(F)cc1NC(=O)C(Cc1ccccc1)NC(=O)c1ccccc1F (stereo not drawn)
2. NC1CCN(c2ccc(F)cc2NC(=O)C(Cc2ccccc2)NC(=O)c2ccccc2F)CC1 (stereo not drawn)
3. CC(=O)N1CCN(c2ccccc2NC(=O)C(Cc2ccccc2)NC(=O)c2ccccc2)CC1 (stereo not drawn)
4. CC(=O)Oc1ccc(CC(NC(=O)c2ccccc2F)C(=O)Nc2ccccc2N2CCOCC2)cc1 (stereo not drawn)
5. Cn1ccc2cccc(NC(=O)C(Cc3ccccc3)NC(=O)c3ccccc3)c21 (stereo not drawn)

1. -0.80
2. 0.50
3. 0.80
4. 0.19
5. 1.40

Dear reader, for each entry below, please note its log10(MIC).
1. O=C(NC(Cc1ccccc1)C(=O)Nc1cccc2c1OCCO2)c1cccs1 (stereo not drawn)
2. O=C(NC(Cc1ccccc1)C(=O)Nc1ccccc1OC(F)F)c1ccccc1 (stereo not drawn)

0.49
0.80

====

# Tested on: Mycobacterium smegmatis ATCC 19420
# experiment_notes: Broth microdilution MIC, M. smegmatis
# Format: cell-based
# condition_summary: Mycolicibacterium smegmatis, ATCC19420, M. smegmatis ATCC 19420; read-out: MIC Mycobacterium smegmatis ATCC 19420
Please note: MIC exactly at 0.8 µg/mL is -1. Only values below 0.8 µg/mL get 1.

Recorded results for 5 compounds are shown here.
compound | assigned_class
O=C(NC(Cc1ccccc1)C(=O)Nc1cccc2[nH]ncc12)c1cccs1 (stereo not shown) | 1
O=C(NC(Cc1ccccc1)C(=O)Nc1cc(F)ccc1OCF)c1ccccc1F (stereo not shown) | 1
O=C(NC(Cc1ccccc1)C(=O)Nc1cc(F)ccc1N1CCNCC1)c1cccc2[nH]ccc12 (stereo not shown) | 1
Cc1ccccc1NC(=O)C(Cc1ccccc1)NC(=O)c1cccc2[nH]ccc12 (stereo not shown) | 1
O=C(NC(Cc1ccccc1)C(=O)Nc1cccc2ncccc12)c1ccccc1F (stereo not shown) | -1

Consider now this further compound.
Identify whether the compound O=C(NC(Cc1ccc(O)cc1)C(=O)Nc1ccccc1N1CCOCC1)c1cccs1 (stereo not shown) records MIC below 0.8 µg/mL.
1

====

# Test system: Vero E6 ATCC CRL1586 cells
# experiment_notes: Mammalian-cell cytotoxicity, minimal cytotoxic concentration (CellTiter96)
# Format: cell-based
assay_endpoint: MCC mammalian cells Vero E6 ATCC CRL1586 (µg/mL)
Numbers only, in µg/mL.

Consider the reported MCC mammalian cells Vero E6 ATCC CRL1586 for these compounds:
compound | MCC mammalian cells Vero E6 ATCC CRL1586 [µg/mL]
O=C(NC(Cc1ccc(O)cc1)C(=O)Nc1cccc2cnccc12)c1cccs1 (stereo not shown) | 80
O=C(NC(Cc1ccccc1)C(=O)Nc1cccc2c1OC(F)(F)O2)c1cccs1 (stereo not shown) | 38
Cc1ccccc1C(=O)NC(Cc1ccccc1)C(=O)Nc1cccc2cc[nH]c12 (stereo not shown) | 15
Cc1ccccc1C(=O)NC(Cc1ccccc1)C(=O)Nc1cccc2c1OCCO2 (stereo not shown) | 10
O=C(NC(Cc1ccccc1)C(=O)Nc1cccc2c1OCCO2)c1ccccc1F (stereo not shown) | 49

Dear reader, for each entry below, please note its MCC mammalian cells Vero E6 ATCC CRL1586.
1. O=C(NC(Cc1ccccc1)C(=O)Nc1cccc2[nH]ccc12)c1cccs1 (stereo not shown)
2. COc1ccccc1NC(=O)C(Cc1ccccc1)NC(=O)c1ccccc1F (stereo not shown)
3. O=C(NC(Cc1ccccc1)C(=O)Nc1cc(F)ccc1N1CCOCC1)c1cccs1 (stereo not shown)

[33, 97, 30]

====

# Test system: Mycobacterium tuberculosis H37Rv
# experiment_notes: Microplate Alamar Blue assay (MABA) MIC, M. tuberculosis
# Format: cell-based
# condition_summary: read-out: MIC Mycobacterium tuberculosis H37Rv
assay_endpoint: MIC (µg/mL)
One number for each entry, in µg/mL.

Consider the reported MIC for these molecules:
molecule | MIC, µg/mL
O=C(NC(Cc1ccc(O)cc1)C(=O)Nc1cc(F)ccc1N1CCNCC1)c1ccccc1 (centres unmarked) | 3.12
Cn1cnc2cccc(NC(=O)C(Cc3ccccc3)NC(=O)c3ccccc3)c21 (centres unmarked) | 25

Here's the next entry for you.
Per the record, O=C(NC(Cc1ccccc1)C(=O)Nc1cccc2[nH]ncc12)c1ccccc1F (centres unmarked) has MIC of 12.5

====

# System: Mycobacterium tuberculosis H37Rv
# experiment_notes: Microplate Alamar Blue assay (MABA) MIC, M. tuberculosis
# Assay type: cell-based
# condition_summary: read-out: MIC Mycobacterium tuberculosis H37Rv
# Source text: Minimal inhibitory concentrations (MICs) in Mycobacterium tuberculosis H37Rv and Mycobacterium avium ATCC 25291 were quantified using microplate Alamar Blue assays as described (MABA; [Collins, L. & Franzblau, S. (1997) Microplate Alamar Blue assay versus BACTEC 460 system for high-throughput screening of compounds against Mycobacterium tuberculosis and Mycobacterium avium. Antimicrob. Agents Chemother. 41, 1004-1009]).
I'd be grateful if you could share measured MIC for these entries.
Numbers only, in mg/L.

Consider the reported MIC for these compounds:
compound | MIC / mg/L
COc1ccccc1NC(=O)C(Cc1ccccc1)NC(=O)c1cccc2[nH]ccc12 (stereo not shown) | 6.25
COc1ccc(Cl)cc1NC(=O)C(Cc1ccccc1)NC(=O)c1ccccc1C (stereo not shown) | 0.78
O=C(NC(Cc1ccccc1)C(=O)Nc1cc(F)ccc1N1CCOCC1)c1ccccc1 (stereo not shown) | 0.78
CC(=O)N1CCCN(c2ccc(F)cc2NC(=O)C(Cc2ccccc2)NC(=O)c2ccccc2F)CC1 (stereo not shown) | 3.12
Cc1ccccc1C(=O)NC(Cc1ccccc1)C(=O)Nc1cc(F)ccc1OCF (stereo not shown) | 0.39
O=C(NC(Cc1ccc(O)cc1)C(=O)Nc1cccc2ccncc12)c1ccccc1 (stereo not shown) | 6.25
Cc1cccc(NC(=O)C(Cc2ccccc2)NC(=O)c2ccccc2)c1C (stereo not shown) | 3.12
O=C(NC(Cc1ccccc1)C(=O)Nc1ccccc1N1CCCC1)c1ccccc1 (stereo not shown) | 9.4

Dear reader, for each entry below, please note its MIC.
1. O=C(NC(Cc1ccccc1)C(=O)Nc1cccc2ncccc12)c1ccccc1Cl (stereo not shown)
2. Cc1ccccc1C(=O)NC(Cc1ccccc1)C(=O)Nc1cccc2c1OCCO2 (stereo not shown)
3. O=C(NC(Cc1ccccc1)C(=O)Nc1cccc2[nH]ncc12)c1cccs1 (stereo not shown)

1: 12.5; 2: 1.56; 3: 25
